Form field: IC50 (one value per entry).
- experimental.target: Amine oxidase [flavin-containing] A (Homo sapiens)
- Sequence (P21397 whole entry): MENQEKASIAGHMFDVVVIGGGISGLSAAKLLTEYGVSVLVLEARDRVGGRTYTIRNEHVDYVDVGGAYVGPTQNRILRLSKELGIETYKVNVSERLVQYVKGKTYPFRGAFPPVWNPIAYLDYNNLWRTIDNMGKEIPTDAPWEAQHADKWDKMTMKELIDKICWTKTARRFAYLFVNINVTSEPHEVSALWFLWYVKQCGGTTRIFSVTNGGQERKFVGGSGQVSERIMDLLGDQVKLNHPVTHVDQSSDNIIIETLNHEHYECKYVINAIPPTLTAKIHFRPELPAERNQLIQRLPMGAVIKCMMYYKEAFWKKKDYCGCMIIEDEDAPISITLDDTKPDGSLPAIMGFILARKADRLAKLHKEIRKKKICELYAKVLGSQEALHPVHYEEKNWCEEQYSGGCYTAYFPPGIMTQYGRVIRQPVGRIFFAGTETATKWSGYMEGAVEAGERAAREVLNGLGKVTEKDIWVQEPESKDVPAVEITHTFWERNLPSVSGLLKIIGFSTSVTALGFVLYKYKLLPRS
- experiment.notes: Inhibition of recombinant human MAO-A expressed in baculovirus infected BTI insect cells assessed as reduction in H2O2 production using p-tyramine as substrate pretreated for 30 mins followed by substrate addition after 30 mins by Amplex red reagent based assay

| smiles.text | IC50 |
| --- | --- |
| Cc1cccc(/C=N/c2ccc(C3=NNC(=O)CO3)cc2)c1 | > 100 µM |
| CN1N=C(c2ccc(/N=C/c3cccc(Cl)c3)cc2)OCC1=O | > 100 µM |
| O=C1COC(c2ccc(/N=N/c3cccc(Cl)c3)cc2)=NN1 | > 100 µM |

Prompt: Please report the recorded IC50 for O=C1COC(c2ccc(/C=C/c3cccc(Cl)c3)cc2)=NN1 .
Response: > 100 µM

Prompt: Cool, now O=C1COC(c2ccc(/N=C/c3ccccc3)cc2)=NN1
Response: > 100 µM

Prompt: Cool, now N#CCCN1N=C(c2ccc(NC(=O)c3cccc(Cl)c3)cc2)OCC1=O
Response: > 100 µM

Prompt: Cool, now O=C1COC(c2ccc(NC(=O)c3cccc(Cl)c3)cc2)=NN1
Response: > 100 µM

Prompt: Cool, now O=C1COC(c2ccc(C(=O)Nc3cccc(Cl)c3)cc2)=NN1
Response: > 100 µM

====

- Organism: Homo sapiens
- experiment.notes: Selectivity index, ratio of IC50 for recombinant human MAO-A to IC50 for recombinant human MAO-B
assay.endpoint: Ratio IC50

Here's what some known entries look like.
| smiles.text | assay.endpoint | reported.measurement |
| --- | --- | --- |
| O=C1COC(c2ccc(/C=C/c3cccc(Cl)c3)cc2)=NN1 | Ratio IC50 | > 578 |
| O=C1COC(c2ccc(/N=N/c3cccc(F)c3)cc2)=NN1 | Ratio IC50 | > 8330 |
| O=C1COC(c2ccc(/C=N/c3cccc(Cl)c3)cc2)=NN1 | Ratio IC50 | > 182 |
| Cc1cccc(/C=N/c2ccc(C3=NNC(=O)CO3)cc2)c1 | Ratio IC50 | > 78 |
| N#CCCN1N=C(c2ccc(NC(=O)c3cccc(Cl)c3)cc2)OCC1=O | Ratio IC50 | > 24 |

Now for the compound whose Ratio IC50 we want.
Prompt: Please report the recorded Ratio IC50 for O=C1COC(c2ccc(/C=C/c3ccccc3)cc2)=NN1 .
Response: > 606

====

- Species: Homo sapiens
- experiment.notes: Selectivity index, ratio of IC50 for recombinant human MAO-A to IC50 for recombinant human MAO-B
assay.endpoint: Ratio IC50

Prompt: Please report the recorded Ratio IC50 for O=C1COC(c2ccc(C(=O)Nc3cccc(Cl)c3)cc2)=NN1 .
Response: > 344

Prompt: Cool, now O=C1COC(c2ccc(/N=C/c3cccc(F)c3)cc2)=NN1
Response: > 65

Prompt: Cool, now O=C1COC(c2ccc(/C=N/Nc3cccc(Cl)c3)cc2)=NN1
Response: > 18

Prompt: Cool, now O=C1COC(c2ccc(/C=C/c3cccc(F)c3)cc2)=NN1
Response: > 4540
